Reference for the values: patent US20250027068

# test-system: pooled human IgG (human IgG1, 2, 3 and 4)
readout-label: Enzyme Activity Endpoint Assay (purified): IgG (ng/µL)
Answers are plain numbers, in ng/µL.

Reported Enzyme Activity Endpoint Assay (purified): IgG for PRT-598 (protein) MANQEIRYSEETPSTITSVWTKGVTPPTDFIQNEDVLHAPYIANQGWYDITKTFNGKDDLLCGAATAGNMLHWWFDQNKEQIENYLKKHPEKQKINFNGEQMFDVKEAIDTKDSQTDSALFEYFKDKAFPYLSTKHLGVFPDHVIDMFINGYRLSLTNHGPTPVKRGTKDPRGGIFDAVFTRGDQSKLLTSRHDFKEKTLNEISDLIKQELTEGKALGLSHTYANVRINHVINLWGADFNAEGNLEAIYVTDSDSNASIGMKKYFVGVNSAGKVAISAKEIEGDNIGAQVLGLFTLSTGQDIWNQTNLEHHHHHH was 0
